- Test system: CCRF-CEM leukemia
- protocol: NCI tumour cell line growth inhibition, 48 h
TGI listing for selected molecules.

Before answering, review these 5 worked examples.
molecule: COc1ccc2[nH]c(=O)c(/C=C/C(=O)c3ccccc3OC)cc2c1
assay-target: CCRF-CEM leukemia
TGI: > 100 µM

molecule: Nc1cc2ccccc2c(O)c1O
assay-target: CCRF-CEM leukemia
TGI: 7.85 µM

molecule: CCN1CCN(Cc2ccc(NC(=O)c3nc4ccc5[nH]ncc5c4c4c3CCCC4)cc2C(F)(F)F)CC1
assay-target: CCRF-CEM leukemia
TGI: 3.26 µM

molecule: [O-][n+]1c2cc(CBr)c(CBr)cc2[n+]([O-])c2c(O)cccc21
assay-target: CCRF-CEM leukemia
TGI: 0.714 µM

molecule: CCOC(=O)NC(C(F)(F)F)(C(F)(F)F)P(=O)(OCC(C)C)OCC(C)C
assay-target: CCRF-CEM leukemia
TGI: > 100 µM

Turning to the following molecule.
Q: // returns reported TGI for input CC(=O)O[C@H]1C(=O)[C@@]2(C)[C@H]([C@H](OC(=O)C3CCCCC3)[C@]3(O)C[C@H](OC(=O)[C@H](O)[C@@H](NC(=O)OC(C)(C)C)c4ccccc4)C(C)=C1C3(C)C)[C@]1(OC(C)=O)CO[C@@H]1C[C@@H]2O
Ans: > 8.82 µM

These data points were gathered from PubChem BioAssay (NCI).
